src = patent US10538555B2

Catalogue of pIC50 values
Molecular target: Human PD-L1/PD-1 (Homo sapiens, UniProt Q9NZQ7)
Construct: TVMV protease cleavage site (C); made in house; host or cells: HEK293T cells
Sequence (Q9NZQ7 with tags, fused parts or gaps): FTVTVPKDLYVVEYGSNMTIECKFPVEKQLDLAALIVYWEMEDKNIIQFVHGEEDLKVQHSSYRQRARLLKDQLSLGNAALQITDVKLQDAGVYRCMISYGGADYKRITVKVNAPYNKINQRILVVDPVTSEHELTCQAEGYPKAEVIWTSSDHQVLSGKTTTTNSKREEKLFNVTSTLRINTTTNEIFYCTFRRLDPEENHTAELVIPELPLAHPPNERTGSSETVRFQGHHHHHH
Experiment: HTRF Human PD-L1/PD-1 binding assay (PD-1-Ig/PD-L1-His)
Conditions: PD-L1-His 10 nM, PD-1-Ig 20 nM; class symbol; read-out: HTRF Human PD-L1/PD-1 Binding Assay IC50 Range
Description: Methods for Testing the Ability of Macrocyclic Peptides to Compete for the Binding of PD-1 to PD-L1 Using Homogenous Time-Resolved Fluorescence (HTRF) Binding Assays The ability of the macrocyclic peptides of the present disclosure to bind to PD-L1 was investigated using a PD-1/PD-L1 Homogenous Time-Resolved Fluorescence (HTRF) binding assay. Homogenous Time-Resolved Fluorescence (HTRF) Assays of Binding of Soluble PD-1 to Soluble PD-L1. […]
pIC50: −log10 of the molar value. Where a SMILES comes first, the peptide text is derived from it. Bridges are numbered along the chain shown (N, C = ends). [ ]: non-standard residue; d: D form. ξ: configuration not given here. NMeAla(4-thiazolyl) = CN[C@@H](Cc1cscn1)C(=O)O; NMeF = CN[C@@H](Cc1ccccc1)C(=O)O; NMeNle = CCCC[C@H](NC)C(=O)O; hSer = N[C@@H](CCO)C(=O)O; NMeA = CN[C@@H](C)C(=O)O; Orn = NCCC[C@H](N)C(=O)O; ξC = NC(CS)C(=O)O; Sar = CNCC(=O)O

molecule="CCCC[C@H]1C(=O)N[C@@H](CC(N)=O)C(=O)N2CCC[C@H]2C(=O)N[C@@H](CO)C(=O)N[C@@H](CCO)C(=O)N2CCC[C@H]2C(=O)N[C@@H](Cc2c[nH]c3ccccc23)C(=O)N[C@@H](CCCN)C(=O)N[C@@H](Cc2c[nH]c3ccccc23)C(=O)N(C)[C@@H](C)C(=O)N(C)CC(=O)N[C@@H](CCCNC(=N)N)C(=O)NC(C(=O)NCC(N)=O)CSCC(=O)N[C@@H](Cc2ccc(O)cc2)C(=O)N1C (some centres unmarked) [Example 10204] ({CH2CO}-Y[NMeNle]NPS[hSer]PW[Orn]W[NMeA][Sar]R[ξC]G-NH2; thioether N-14)" experimental_endpoint=pIC50 experimental_value="5.00 to 6.00"

Moving on to the next molecule.
Asked: Dear colleague, I am looking for the recorded pIC50 of the following molecule: CCCC[C@H]1C(=O)N(C)CC(=O)N[C@@H](CC(N)=O)C(=O)N[C@@H](C(C)C)C(=O)N(C)[C@@H](Cc2ccccc2)C(=O)N[C@@H](Cc2ccc(O)cc2)C(=O)N(C)CC(=O)N[C@@H](Cc2c[nH]c3ccccc23)C(=O)N[C@@H](Cc2ccc(O)cc2)C(=O)N[C@@H](CCCN)C(=O)N[C@H](C(=O)NCC(N)=O)CSCC(=O)N[C@@H](Cc2ccccc2)C(=O)N(C)[C@@H](Cc2cscn2)C(=O)N1C [Example 3616] ({CH2CO}-F[NMeAla(4-thiazolyl)][NMeNle][Sar]NV[NMeF]Y[Sar]WY[Orn]CG-NH2; thioether N-13)
Given back: 7.00 to 8.00

* * *

Target: Human PD-L1/PD-1 (Homo sapiens, UniProt Q9NZQ7)
Construct: TVMV protease cleavage site (C); made in house; host or cells: HEK293T cells
Assay: HTRF Human PD-L1/PD-1 binding assay (PD-1-Ig/PD-L1-His)
Conditions: PD-L1-His 10 nM, PD-1-Ig 20 nM; class symbol; read-out: HTRF Human PD-L1/PD-1 Binding Assay IC50 Range
pIC50: −log10 of the molar value. Where a SMILES comes first, the peptide text is derived from it. Bridges are numbered along the chain shown (N, C = ends). [ ]: non-standard residue; d: D form. NMePhe(4-F) = CN[C@@H](Cc1ccc(F)cc1)C(=O)O; Phe(4-F) = N[C@@H](Cc1ccc(F)cc1)C(=O)O; Hyp = O=C(O)[C@@H]1C[C@@H](O)CN1; NMeF = CN[C@@H](Cc1ccccc1)C(=O)O; NMeNle = CCCC[C@H](NC)C(=O)O; Pip = O=C(O)[C@@H]1CCCCN1; Dab = NCC[C@H](N)C(=O)O; Dap = NC[C@H](N)C(=O)O
// reported pIC50 per item

Asked: Query: pIC50; subject: CCCC[C@H]1C(=O)N2CCC[C@@H]2C(=O)N[C@@H](CC(=O)O)C(=O)N[C@@H](C(C)C)C(=O)N(C)[C@@H](Cc2ccc(F)cc2)C(=O)N[C@@H](CCN)C(=O)N2CCC[C@@H]2C(=O)N[C@@H](Cc2c[nH]c3ccccc23)C(=O)N[C@@H](Cc2ccc(O)cc2)C(=O)N[C@@H](CC(C)C)C(=O)N[C@H](C(=O)NCC(N)=O)CSCC(=O)N[C@@H](Cc2ccc(F)cc2)C(=O)N(C)[C@@H](Cc2ccccc2)C(=O)N1C [Example 10109] ({CH2CO}-[Phe(4-F)][NMeF][NMeNle][dP]DV[NMePhe(4-F)][Dab][dP]WYLCG-NH2; thioether N-13)
Given back: 7.00 to 8.00

Asked: # pIC50 lookup, item CCCC[C@H]1C(=O)N(C)[C@@H](CCCC)C(=O)N[C@@H](C)C(=O)N[C@H](C(=O)NCC(N)=O)CSCC(=O)N[C@@H](Cc2ccc(O)cc2)C(=O)N2CCCC[C@H]2C(=O)N[C@@H](CC(=O)O)C(=O)N2CCC[C@H]2C(=O)N[C@@H](CN)C(=O)N[C@@H](CCC(N)=O)C(=O)N2C[C@H](O)C[C@H]2C(=O)N[C@@H](Cc2c[nH]c3ccccc23)C(=O)N[C@@H](CO)C(=O)N[C@@H](Cc2c[nH]c3ccccc23)C(=O)N1C [Example 1257] ({CH2CO}-Y[Pip]DP[Dap]Q[Hyp]WSW[NMeNle][NMeNle]ACG-NH2; thioether N-14)
Given back: 8.00 to 9.00
